B1: mRNA-splicing (parent)
chain: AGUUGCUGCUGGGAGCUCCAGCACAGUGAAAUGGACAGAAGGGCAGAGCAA

# Variants of: B1
# assay-details: exon inclusion enrichment index; higher = more inclusion; WT1 exon 5 minigene, HEK293
measure-name: exon inclusion enrichment index
Could you respond with only the numeric value?

>>> recorded_number("G5C C6A U7C G8A U10A G11U G12A")
0.0375

Now, please, on to the next variant.
Look up exon inclusion enrichment index for this variant: U4G G5A C6A U7C C9A U10C
3.42
